molecular target: 242-kinase (UniProt P19525 242-551); assay: sedimentation velocity AUC; 1:1 model; second protein not detected; AU75: 75 mM HEPES pH 7.5, 75 mM NaCl, 0.1 mM EDTA, 0.1 mM TCEP, 20 °C, 50,000 rpm, 260 nm; errors are confidence intervals (95% joint stated for Table 2); crosslinking in AU75 + 10 mM EDTA, 0.5 µM RNA, 1 µM protein, on ice before UV; conditions: protein: recombinant; tags: TEV-cleaved; single strand
Sequence (P19525 242-551): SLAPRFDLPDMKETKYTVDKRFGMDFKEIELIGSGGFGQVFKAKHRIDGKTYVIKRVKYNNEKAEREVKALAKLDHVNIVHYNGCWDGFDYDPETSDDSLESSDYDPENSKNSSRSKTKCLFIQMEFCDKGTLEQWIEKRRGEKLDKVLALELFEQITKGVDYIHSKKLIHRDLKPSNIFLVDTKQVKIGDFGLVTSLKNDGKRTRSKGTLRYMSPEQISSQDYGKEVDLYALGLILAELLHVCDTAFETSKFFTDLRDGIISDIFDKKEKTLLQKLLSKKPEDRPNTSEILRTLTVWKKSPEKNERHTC
MEASURED METRIC: pKd
// pKd: -log10(molar conc.)

Ask: Dear colleague, I am looking for the recorded pKd of the following binder: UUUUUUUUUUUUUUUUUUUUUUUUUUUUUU (ssRNA) [U30]
Reply: 4.05
